- test.settings: human, in vivo, 15 mg

mol.smiles	AUC(0-inf), ng·h/mL
Cc1ccc(C(=O)Nc2ccc(CN3CCN(C)CC3)c(C(F)(F)F)c2)cc1C#Cc1cnc2cccnn12	472

* * *

- test.settings: human, in vivo, 15 mg
outcome.measure: AUC(0-t) (ng·h/mL)

mol.smiles	reported
Cc1ccc(C(=O)Nc2ccc(CN3CCN(C)CC3)c(C(F)(F)F)c2)cc1C#Cc1cnc2cccnn12	414

* * *

- test.settings: human, in vivo, po, 15 mg
outcome.measure: Tmax

mol.smiles	reported
Cc1ccc(C(=O)Nc2ccc(CN3CCN(C)CC3)c(C(F)(F)F)c2)cc1C#Cc1cnc2cccnn12	~6 h
